From various publications: Ki for UniProt:P35439.

Consider the reported Ki for these molecules:
INSERT INTO results (molecule, result_type, recorded_result) VALUES
  ('N[C@H](CS(=O)(=O)O)C(=O)O', 'Ki', '> 10 µM'),
  ('C[C@H](NC(=O)CNC(=O)[C@@H](NC(=O)[C@H](Cc1ccccc1)NC(=O)CNC(=O)CNC(=O)[C@@H](N)Cc1ccccc1)[C@@H](C)O)C(=O)N[C@@H](CCCN=C(N)N)C(=O)N[C@@H](CCCCN)C(=O)N[C@@H](CO)C(=O)N[C@@H](C)C(=O)N[C@@H](CCCN=C(N)N)C(=O)N[C@@H](CCCCN)C(N)=O', 'Ki', '> 10 µM'),
  ('NCCCCNCCCN', 'Ki', '> 10 µM'),
  ('O=C(O)c1cccnc1C(=O)O', 'Ki', '> 10 µM'),
  ('CC(C)=CCC[C@]1(C)[C@@H](CC=C(C)C)C[C@]2(CC=C(C)C)C(=O)C(CC=C(C)C)C(=O)[C@]1(C(=O)C(C)C)C2=O (stereo partly drawn)', 'Ki', '> 10 µM'),
  ('CN[C@H](CC(=O)O)C(=O)O', 'Ki', '5.5 µM'),
  ('O=C(O)c1[nH]c2cc(Cl)cc(Cl)c2c1/C=C1\CCCN(c2ccccc2)C1=O', 'Ki', '0.0073 µM'),
  ('CSCC[C@@H](N)C(=O)O', 'Ki', '> 10 µM'),
  ('C[C@@H]([C@@H](O)c1ccc(O)cc1)N1CCC(O)(c2ccccc2)CC1', 'Ki', '0.008 µM'),
  ('N[C@H](CCS(=O)O)C(=O)O', 'Ki', '> 10 µM');

Request: Test system UniProt:P35439; read-out Ki; what value for Cc1onc(C(=O)O)c1C[C@H](N)C(=O)O ?
Response: > 10 µM

Request: Test system UniProt:P35439; read-out Ki; what value for O/N=C/Nc1ccc(N2CCOCC2)c(Cl)c1 ?
Response: > 10 µM

Request: Test system UniProt:P35439; read-out Ki; what value for O=c1cc(O)cc2oc(-c3ccc(O)c(-c4c(O)cc(O)c5c(=O)cc(-c6ccc(O)cc6)oc45)c3)cc(O)c1-2 ?
Response: > 10 µM
